Listed compounds paired with reported melting point

Look over these answered cases.
[
  {
    "Compound": "COC(=O)C1=C(CN(CCO)Cc2ccccc2)NC(c2ncccc2F)=NC1c1ccc(F)cc1Br (stereo not drawn)",
    "Endpoint Result": "121 °C"
  },
  {
    "Compound": "COC(=O)C1=C(CN2CCSC2)NC(c2ncccc2F)=NC1c1ccc(F)cc1Br (stereo not drawn)",
    "Endpoint Result": "172 to 173 °C"
  },
  {
    "Compound": "COC(=O)C1=C(CN(CCO)CCO)NC(c2ncc(F)cc2F)=NC1c1ccc(Cl)cc1Cl (stereo not drawn)",
    "Endpoint Result": "144 to 145 °C"
  },
  {
    "Compound": "COC(=O)C1=C(CN2CCCC2)NC(c2ncc(F)cc2F)=NC1c1ccc(Cl)cc1Cl (stereo not drawn)",
    "Endpoint Result": "168 to 170 °C"
  },
  {
    "Compound": "CCN(C)CC1=C(C(=O)OC)C(c2ccc(Cl)cc2Cl)N=C(c2ncc(F)cc2F)N1 (stereo not drawn)",
    "Endpoint Result": "142 to 143 °C"
  },
  {
    "Compound": "COC(=O)C1=C(CN(CCO)CCO)NC(c2ncccc2F)=NC1c1ccc(F)cc1Cl (stereo not drawn)",
    "Endpoint Result": "119 to 120 °C"
  },
  {
    "Compound": "COC(=O)C1=C(CN2CCSCC2)NC(c2ncc(F)cc2F)=NC1c1ccc(F)cc1Br (stereo not drawn)",
    "Endpoint Result": "173 to 174 °C"
  },
  {
    "Compound": "COC(=O)C1=C(CN(C)CCO)NC(c2ncc(F)cc2F)=NC1c1ccc(F)cc1Br (stereo not drawn)",
    "Endpoint Result": "114 to 116 °C"
  },
  {
    "Compound": "COC(=O)C1=C(CN2CCOCC2)NC(c2nccs2)=NC1c1ccc(Cl)cc1Cl (stereo not drawn)",
    "Endpoint Result": "149 °C"
  },
  {
    "Compound": "COC(=O)C1=C(CN(C)CCO)NC(c2ncccc2F)=NC1c1ccc(F)cc1Cl (stereo not drawn)",
    "Endpoint Result": "117 to 119 °C"
  }
]

For record COC(=O)C1=C(CN2CCSCC2)NC(c2ncccc2F)=NC1c1ccc(Cl)cc1Cl (stereo not drawn) the listed melting point is 137 °C

For record COC(=O)C1=C(CN2CCOCC2)NC(c2ncccc2F)=NC1c1ccc(F)cc1Br (stereo not drawn) the listed melting point is 156 to 158 °C

For record COC(=O)C1=C(CN2CCCC2)NC(c2ncc(F)cc2F)=NC1c1ccc(F)cc1Br (stereo not drawn) the listed melting point is 161 to 162 °C

For record COC(=O)C1=C(CN2CCSC2)NC(c2ncc(F)cc2F)=NC1c1ccc(Cl)cc1Cl (stereo not drawn) the listed melting point is 189 to 191 °C

For record COC(=O)C1=C(CN2CCSCC2)NC(c2ncc(F)cc2F)=NC1c1ccc(Cl)cc1Cl (stereo not drawn) the listed melting point is 166 to 168 °C
